B1: CLCN6 (parent)
chain: VGEIVGIITRHNLTYEFLQARLRQ

- Variants of: B1
- assay notes: protein stability index of a GFP-peptide fusion (GPS, HEK-293T) (PSI 1-6); higher = more stable;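 note: lentivirally expressed fusions sorted by FACS into six bins by GFP to DsRed ratio, PSI derived from sequencing read proportions per bin multiplied by bin number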
- study conditions: c terminus: a fixed tail appended
measured property: protein stability index
Field format: numeric only.

Briefly, protein stability index measured for L18P : 2.81

Briefly, protein stability index measured for E16R : 2.46

Briefly, protein stability index measured for I7Y : 3.15

Briefly, protein stability index measured for T9P : 2.78

Briefly, protein stability index measured for I4N : 2.37

Briefly, protein stability index measured for L18Q : 2.07

Briefly, protein stability index measured for Q24P : 2.15

Briefly, protein stability index measured for I7T : 1.73

Briefly, protein stability index measured for I4P : 2.88

Briefly, protein stability index measured for V1D : 2.41

Briefly, protein stability index measured for T14N : 2.03

Briefly, protein stability index measured for I4G : 2.33
